So I've got a bunch of molecules here, and I need their inhibition values.
# Assay protocol: KLF5 expression inhibitors, primary screen, DLD-1 cells, luminescence (AID 1700);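 further: 0% = DMSO wells and 100% = LY294002 at 200 µM; higher means less KLF5 promoter-driven luciferase light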
# Experimental conditions: DLD-1 KLF5 promoter-luciferase reporter, at 5 µM, hits give high values
Hit rate of the full screen: of about 290,000 compounds, about 670 (0.23%) were called active. The sample as a whole holds a higher share of actives than the screen did.
The reply should be a number in %, with the unit left off.

Which inhibition reading was recorded for the molecule `c1ccc(-n2nc3ccccc3n2)cc1` ? -2.18

Which inhibition reading was recorded for the molecule `CCC(=O)Nc1ccc2nn(-c3ccc(F)cc3)nc2c1` ? -97

Which inhibition reading was recorded for the molecule `COc1ccccc1N1CCN(C(=O)c2cc(=O)c3cc(C)cc(C)c3o2)CC1` ? 88.2

Which inhibition reading was recorded for the molecule `CCOC(=O)c1ccc(NC(=O)Cc2cccs2)cc1` ? -60.6

Which inhibition reading was recorded for the molecule `COc1ccccc1N1CCN(C(=O)c2cc(=O)c3cc(C)ccc3o2)CC1` ? 15.1

Which inhibition reading was recorded for the molecule `CC(C)CCn1c(=O)c2c(nc3n2CCCN3Cc2ccccc2)n(C)c1=O` ? -4.63

Which inhibition reading was recorded for the molecule `Nc1ccc2nn(-c3ccc(Cl)cc3)nc2c1` ? 97.7

Which inhibition reading was recorded for the molecule CCCC(C(=O)n1nc(C)cc1C)C(NS(=O)(=O)c1ccc(C)cc1)c1ccccc1 (configuration not stated) ? -5.65

Which inhibition reading was recorded for the molecule `COc1cc(C(=O)NC2CCN(Cc3ccccc3)CC2)cc(Cl)c1OC(C)C` ? 0.72

Which inhibition reading was recorded for the molecule COc1ccccc1N1CCC(N2CCN(CC(C)(C)C)C(CCO)C2)CC1 (configuration not stated) ? -23.1

Which inhibition reading was recorded for the molecule `CN1CCN(C(=O)CCc2nc(-c3ccc(Cl)cc3)no2)CC1` ? -29.1

Which inhibition reading was recorded for the molecule `CCN(CC)N=Nc1cccc(NC(C)=O)c1` ? -51.2
